# study_system: T1, GST-human NOGO-A56 (human, UniProt P08515 1-218 = GST)
# T1 construct: GST-tagged fusion expressed in E. coli BL21 and purified on glutathione-sepharose; coated on ELISA plates or amine-coupled to a CM5 chip; also called hNOGO; recombinant human NOGO
# T1 sequence (P08515 1-218, tags or fused parts left off): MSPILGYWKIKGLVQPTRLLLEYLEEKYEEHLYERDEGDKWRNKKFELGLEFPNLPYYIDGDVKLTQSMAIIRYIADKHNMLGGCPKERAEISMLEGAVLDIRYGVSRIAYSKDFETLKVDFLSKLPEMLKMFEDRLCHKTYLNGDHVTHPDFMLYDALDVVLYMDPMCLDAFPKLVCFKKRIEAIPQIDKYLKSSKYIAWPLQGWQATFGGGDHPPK
# assay_notes: SPR (Biacore 3000), GST-human NOGO-A56 amine-coupled to CM5, antibody as analyte; mean (SD) of four experiments
Kd reference

binder: H18L16 (antibody, human IgG1, kappa, V domains shown, Humanised 2A10; also called H18L16 FL) VH: QVQLVQSGAEVVKPGASVKLSCKASGYTFTSYWMHWVKQRPGQGLEWIGNINPSNGGTNYNEKFKSKATLTVDKSSSTAYMELSSLRSEDSAVYYCELGQGYWGQGTLVTVSS VL: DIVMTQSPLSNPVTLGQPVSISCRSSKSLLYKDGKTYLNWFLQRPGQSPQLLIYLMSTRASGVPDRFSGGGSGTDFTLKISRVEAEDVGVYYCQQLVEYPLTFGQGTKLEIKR
Kd [nM]: 1.62

binder: H6L13 (antibody, human IgG1, kappa, V domains shown, Humanised 2A10; Human gamma1 mutated constant region and human kappa; also called H6L13 FL) VH: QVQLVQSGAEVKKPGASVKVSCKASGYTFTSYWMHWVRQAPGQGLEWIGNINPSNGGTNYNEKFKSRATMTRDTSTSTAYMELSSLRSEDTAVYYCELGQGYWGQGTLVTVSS VL: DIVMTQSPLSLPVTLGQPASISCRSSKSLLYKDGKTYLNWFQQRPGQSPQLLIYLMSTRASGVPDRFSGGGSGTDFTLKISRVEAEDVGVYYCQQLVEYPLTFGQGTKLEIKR
Kd [nM]: 7.68

binder: H1L11 (antibody, human IgG1, kappa, V domains shown, Earlier humanised 2A10) VH: QVQLVQSGAEVKKPGASVKVSCKASGYTFTSYWMHWVRQAPGQGLEWMGNINPSNGGTNYNEKFKSRVTMTRDTSTSTVYMELSSLRSEDTAVYYCELGQGYWGQGTLVTVSS VL: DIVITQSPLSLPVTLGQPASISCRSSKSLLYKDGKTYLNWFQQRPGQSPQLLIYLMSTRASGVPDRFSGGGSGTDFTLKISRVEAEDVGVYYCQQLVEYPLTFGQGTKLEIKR
Kd [nM]: 18.6

binder: HcLc (chimera of 2A10: murine 2A10 VH and VL with human IgG constant regions) (antibody, V domains shown, Human gamma1 mutated constant region and human kappa; also called 2A10 chimeric antibody; the chimera) VH: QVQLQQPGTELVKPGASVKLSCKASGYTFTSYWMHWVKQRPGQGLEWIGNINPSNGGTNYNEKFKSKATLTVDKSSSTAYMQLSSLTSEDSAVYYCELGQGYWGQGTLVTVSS VL: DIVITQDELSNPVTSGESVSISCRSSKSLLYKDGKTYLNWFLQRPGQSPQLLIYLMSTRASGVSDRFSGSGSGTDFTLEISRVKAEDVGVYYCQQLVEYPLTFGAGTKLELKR
Kd [nM]: 1.41
